# target.or.test.system: T1, SERBP1 (human, UniProt Q8NC51 1-408)
# T1 sequence: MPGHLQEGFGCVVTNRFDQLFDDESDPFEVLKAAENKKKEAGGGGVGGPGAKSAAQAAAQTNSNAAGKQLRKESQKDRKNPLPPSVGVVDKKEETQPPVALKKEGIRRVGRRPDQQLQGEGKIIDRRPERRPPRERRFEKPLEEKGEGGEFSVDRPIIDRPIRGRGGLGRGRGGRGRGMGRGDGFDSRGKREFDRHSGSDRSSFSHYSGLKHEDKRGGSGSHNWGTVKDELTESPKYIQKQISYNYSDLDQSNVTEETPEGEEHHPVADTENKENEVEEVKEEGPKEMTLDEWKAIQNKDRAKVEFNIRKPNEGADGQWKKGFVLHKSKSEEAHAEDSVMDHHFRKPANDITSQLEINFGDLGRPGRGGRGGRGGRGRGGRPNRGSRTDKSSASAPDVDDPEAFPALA
# experiment.description: fluorescence polarization; 5 nM RNA, 0-1000 nM protein; FP: 10 mM HEPES pH 7.5, 50 mM KCl, room temperature
# condition.notes: protein: recombinant; tags: N-terminal His6, proteolytically removed (Methods; Results call it an N-terminus His6 fusion); label: 5'-fluorescein; single strand
endpoint.name: Kd

Lookup result for GCGCGGG (ssRNA) [SERBP1 RNA 7-mer] ; measured Kd: ~47 nM
